Test system: soybean (Glycine max var. Winchester)
ASSAY SUMMARY: Postemergence herbicidal activity, soybean
Assay type: in vivo
CONDITION SUMMARY: rate of application 0.3 Kg/Ha, rated after 12-17 days
Kindly supply the reported Postemergence herbicidal activity (% control) SOY values for the records listed here.
For clarity, give the value followed by its unit.

Past entries and their recorded results:
>  <COMPOUND>
CC(OC(C)(C)C)c1cc2c(Cl)cc(F)c(-n3c(=O)cc(C(F)(F)F)n(C)c3=O)c2o1 (centres unmarked) [Compound 244]

>  <VALUE REPORTED>
95%

$$$$
>  <COMPOUND>
Cn1c(C(F)(F)F)cc(=O)n(-c2c(F)cc(Cl)c3nc(Cc4ccc(Cl)cc4)[nH]c23)c1=O [Compound 383]

>  <VALUE REPORTED>
95%

$$$$

Would you be so kind as to report Postemergence herbicidal activity (% control) SOY for each listed record?
1. CC(=O)OC(C)c1cc2c(Cl)cc(F)c(-n3c(=O)cc(C(F)(F)F)n(C)c3=O)c2o1 (centres unmarked) [Compound 246]
2. Cn1c(C(F)(F)F)cc(=O)n(-c2c(F)cc(Cl)c3oc(NS(C)(=O)=O)nc23)c1=O [Compound 42]

OUTPUT:
1: 95%; 2: 65%

INPUT: Determine from records and report Postemergence herbicidal activity (% control) SOY for COC(C)(C)c1cc2c(Cl)ccc(-n3c(=O)cc(C(F)(F)F)n(C)c3=O)c2o1 [Compound 251]
OUTPUT: 95%

meta.source: patent US6352958B1
